Documented Concentration of FLNA-Binding Compound as Agonist 1 μM across a set of molecules
# Test system: mu opiate receptor (MOR)
# method_summary: MOR agonist activity using [35S]GTPγS binding assay in striatal membranes
# Assay type: biochemical
# experimental_conditions: Series C-1; 1 μM compound; [35S]GTPγS binding to Gαo, striatal membranes
property_label: Concentration of FLNA-Binding Compound as Agonist 1 μM (%)

| molecule | scale_unit | test_value |
| --- | --- | --- |
| O=S(=O)(c1ccc(Br)cc1C(F)(F)F)N1CCC2(CC1)OCCN2S(=O)(=O)c1ccc(Br)cc1C(F)(F)F | % | 263.1 |
| O=S(=O)(c1ccc2ccccc2c1)N1CCC2(CC1)OCCN2S(=O)(=O)c1ccc2ccccc2c1 [Compound C0140M] | % | 215.4 |
| COc1ccccc1S(=O)(=O)N1CCC2(CC1)OCCN2S(=O)(=O)c1ccccc1OC | % | 215.9 |
| CC(=O)c1ccc(C(=O)N2CCC3(CC2)OCCN3C(=O)c2ccc(C(C)=O)cc2)cc1 | % | 127.0 |
| CCCCc1ccc(S(=O)(=O)N2CCC3(CC2)OCCN3S(=O)(=O)c2ccc(CCCC)cc2)cc1 | % | 226.8 |
| CC(=O)c1ccc(S(=O)(=O)N2CCC3(CC2)NCC(=O)N3Cc2ccccc2)cc1 [Compound C0082M] | % | 338.4 |
| O=S(=O)(c1ccc(Cl)cc1)N1CCC2(CC1)OCCN2S(=O)(=O)c1ccc(Cl)cc1 | % | 179.0 |
| CC(=O)c1ccc(S(=O)(=O)N2CCC3(CC2)OCCN3S(=O)(=O)c2ccc(C(C)=O)cc2)cc1 | % | 305.0 |
| O=S(=O)(c1ccc(Br)cc1Br)N1CCC2(CC1)OCCN2S(=O)(=O)c1ccc(Br)cc1Br | % | 210.8 |
| COc1ccc(C(=O)N2CCOC23CCN(S(=O)(=O)c2ccc(OC)cc2)CC3)cc1 | % | 176.6 |
| O=S(=O)(c1ccccc1)N1CCC2(CC1)OCCN2S(=O)(=O)c1ccccc1 | % | 230.5 |
| COc1ccc(S(=O)(=O)N2CCC3(CC2)OCCN3S(=O)(=O)c2ccc(OC)cc2)cc1 | % | 308.2 |
| O=S(=O)(c1ccc(Br)cc1)N1CCC2(CC1)OCCN2S(=O)(=O)c1ccc(Br)cc1 | % | 320.7 |
| O=S(=O)(c1ccc(OC(F)(F)F)cc1)N1CCC2(CC1)OCCN2S(=O)(=O)c1ccc(OC(F)(F)F)cc1 | % | 204.0 |
| O=S(=O)(c1ccc(F)c(F)c1)N1CCC2(CC1)OCCN2S(=O)(=O)c1ccc(F)c(F)c1 | % | 259.1 |

###

The reader will find reported inhibition at 1 µM values listed item by item below.
# assayed_system: FLNA pentapeptide of SEQ ID NO: 1 (Bn-VAKGL) (Homo sapiens, UniProt P21333)
# method_summary: FITC-NLX-based FLNA screening assay (inhibition of FITC-naloxone binding to Bn-VAKGL on streptavidin plates)
# experimental_conditions: FLNA-binding compound 1 μM; 10 nM FITC-NLX; read-out: Percent Binding Inhibition

| compound | inhibition at 1 µM |
| --- | --- |
| CCOC(=O)CN1CCC2(CC1)OCCN2S(=O)(=O)c1ccc(C(C)=O)cc1 [Compound C0099M] | 56% |
| CC(=O)Nc1ccc(S(=O)(=O)N2CCC3(CC2)OCCN3S(=O)(=O)c2ccc(NC(C)=O)cc2)cc1 [Compound C0013] | 49.1% |
| CC1CCN(CC(O)COC2CC(C)CCC2C(C)C)CC1 (centres unmarked) [Compound A0006] | 47.5% |
| Cc1cccc(OCC(O)CN2CC(C)OC(C)C2)c1 (centres unmarked) [Compound A0030] | 48.9% |
| CC(=O)c1ccc(S(=O)(=O)N2CCOC23CCNCC3)cc1 [Compound C0046] | 42.2% |
| CC(=O)c1ccc(C(=O)N2CCOC23CCN(S(=O)(=O)c2ccc(C(C)=O)cc2)CC3)cc1 [Compound C0053] | 39.3% |
| Cc1ccc(S(=O)(=O)N2CCOC23CCN(CC2CC2)CC3)cc1 [Compound C0134M] | 61.9% |
| COc1ccc(C(=O)N2CCC3(CC2)OCCN3S(=O)(=O)c2ccc(OC)cc2)cc1 [Compound C0018] | 53.4% |
| CC(=O)c1ccc(S(=O)(=O)N2CCOC23CCN(CC2CC2)CC3)cc1 [Compound C0095M] | 50.5% |
| CNc1ccc(S(=O)(=O)N2CCC3(CC2)OCCN3S(=O)(=O)c2ccc(NC)cc2)cc1 [Compound C0024] | 50.4% |
| CC1CCCC(OCC(O)CN2CC(C)OC(C)C2)C1 (centres unmarked) [Compound A0021] | 49.5% |
| COc1ccc(S(=O)(=O)N2CCCC3(C2)OCCN3S(=O)(=O)c2ccc(OC)cc2)cc1 (centres unmarked) [Compound C0145M] | 58.3% |
| O=S(=O)(c1ccc(F)c(F)c1)N1CCC2(CC1)OCCN2S(=O)(=O)c1ccc(F)c(F)c1 [Compound C0072] | 44% |
| CC1CN(CC(O)COc2ccccc2Br)CC(C)O1 (centres unmarked) [Compound A0043] | 51.8% |
| CC(=O)c1ccc(S(=O)(=O)N2CCOC23CCN(CC(=O)O)CC3)cc1 [Compound C0100M] | 64.5% |
| CC1CCC(C(C)C)C(OCC(O)CN2CC(C)OC(C)C2)C1 (centres unmarked) [Compound A0032-1] | 50% |
| COc1ccc(CCC(=O)CC2c3c(cc4c(c3OC)OCO4)CCN2C)cc1 (centres unmarked) [Compound B0047] | 47.1% |

###

# Test system: mu opiate receptor (MOR)
# method_summary: MOR agonist activity using [35S]GTPγS binding assay in striatal membranes
# Assay type: biochemical
# experimental_conditions: 1 μM compound relative to DAMGO
# Description: To assess the mu opiate receptor (MOR) agonist activity of positive compounds from the FLNA screening, compounds were tested in a [^35S]GTPγS binding assay using striatal membranes. […] The immunocomplexes so formed were collected by incubation at 25° C. for 30 minutes with 40 μl of agarose-conjugated protein A/G beads and centrifugation at 5,000×g at 4° C. for 5 minutes. […] The radioactivity in the suspension was determined by liquid scintillation spectrometry.

| compound | assayed_system | scale_unit | % DAMGO (1 μM) |
| --- | --- | --- | --- |
| CC1CCC(C(C)C)C(OCC(O)CN(C(C)C)C(C)C)C1 (centres unmarked) | mu opiate receptor (MOR) | % | 85.6 |
| COc1ccc(OCC(O)CN2CCc3ccccc3C2)cc1 (centres unmarked) | mu opiate receptor (MOR) | % | 47.5 |
| CC1CCC(C(C)C)C(OCC(O)CN2CCCCC2)C1 (centres unmarked) | mu opiate receptor (MOR) | % | 89.6 |
| CC1CN(CC(O)COc2ccccc2)CC(C)O1 (centres unmarked) | mu opiate receptor (MOR) | % | 54.5 |
| CC1CN(CC(O)COc2cccc(C(F)(F)F)c2)CC(C)O1 (centres unmarked) | mu opiate receptor (MOR) | % | 140.1 |

###

# Test system: mu opiate receptor (MOR)
# method_summary: MOR agonist activity using [35S]GTPγS binding assay in striatal membranes
# Type: biochemical
# experimental_conditions: 0.1 μM compound relative to DAMGO
Each entry below lists one item and its recorded % DAMGO (0.1 μM) value.
property_label: % DAMGO (0.1 μM)

| molecule | property_label | test_value |
| --- | --- | --- |
| CC1CCC(C(C)C)C(OCC(O)CN(C(C)C)C(C)C)C1 (stereo not shown) | % DAMGO (0.1 μM) | 90.7% |
| CC1CN(CC(O)COc2ccc(Br)c(Cl)c2)CC(C)O1 (stereo not shown) | % DAMGO (0.1 μM) | 73.3% |
| CC1CCC(C(C)C)C(OCC(O)CN2CCC2)C1 (stereo not shown) | % DAMGO (0.1 μM) | 64.8% |
| CC1CN(CC(O)COC2CCCCC2)CC(C)O1 (stereo not shown) | % DAMGO (0.1 μM) | 96.9% |

###

inhibition at 0.01 µM for assorted compounds
# assayed_system: FLNA pentapeptide of SEQ ID NO: 1 (Bn-VAKGL) (Homo sapiens, UniProt P21333)
# method_summary: FITC-NLX-based FLNA screening assay (inhibition of FITC-naloxone binding to Bn-VAKGL on streptavidin plates)
# experimental_conditions: FLNA-binding compound 0.01 μM; 10 nM FITC-NLX; read-out: Percent Binding Inhibition
property_label: inhibition at 0.01 µM (%)

| compound | test_value |
| --- | --- |
| COc1ccc(S(=O)(=O)N2CCC3(CC2)OCCN3S(=O)(=O)c2ccc(OC)c(OC)c2)cc1OC | 25.3 |
| CC1CCC(C(C)C)C(OCC(O)CN2CCN(C)CC2)C1 (stereo not shown) | 26.4 |
| COc1c2c(cc3c1OCO3)CCN(CC(O)COC1CC(C)CCC1C(C)C)C2 (stereo not shown) | 27.5 |
| CC1CCC(C(C)C)C(OCC(O)CN2CCN(CCN3CCOCC3)CC2)C1 (stereo not shown) | 45.7 |
